This collection of values is drawn from patent US20230399341A1.

Biological target: Human HPK1, catalytic domain (Homo sapiens, UniProt Q92918)
Sequence (Q92918 1-346): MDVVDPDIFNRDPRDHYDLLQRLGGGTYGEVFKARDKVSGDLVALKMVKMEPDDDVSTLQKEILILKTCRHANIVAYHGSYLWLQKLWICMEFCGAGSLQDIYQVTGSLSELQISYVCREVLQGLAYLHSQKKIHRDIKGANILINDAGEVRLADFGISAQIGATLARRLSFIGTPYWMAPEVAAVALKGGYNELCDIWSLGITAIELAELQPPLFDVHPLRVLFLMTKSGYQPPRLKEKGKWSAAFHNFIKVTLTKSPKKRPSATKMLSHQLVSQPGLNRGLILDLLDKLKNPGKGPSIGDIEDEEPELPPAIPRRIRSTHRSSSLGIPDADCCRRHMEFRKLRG
Quantity name: IC50 (nM)

Examples from the recorded data:
In [3]: df
Out[3]:
                                   compound  quantity_name  measured_result
0  Cc1c(-c2cc3nc(Nc4cccc(S(C)(=O)=O)c4)ncc3c(N)c2F)cnc2c1NCCO2           IC50            0.082
1  Cc1c(-c2c(F)c(N)c3cnc(Nc4ccc(CS(C)(=O)=O)cc4)nc3c2Cl)cnc2c1NCCO2 [Compound 2-92]           IC50           0.0399

I = CNC(=O)C1CCc2cc(Nc3ncc4c(N)c(F)c(-c5cnc6c(c5C)NCCO6)cc4n3)ccc21 (stereo not drawn)
II = COc1cc2c(cc1Nc1ncc3ccc(-c4ccc(S(N)(=O)=O)cc4C)cc3n1)CNCC2
Pick one: I or II . Which one has the lower reported IC50? Could you answer with the label of the item you picked? I
(I: 0.0806 nM, II: 108 nM)

1 = COc1cc2c(cc1Nc1ncc3c(N)c(F)c(-c4ccc(-c5ncco5)cc4C)cc3n1)CN(C)CC2
2 = COc1cc2c(cc1Nc1ncc3ccc(Oc4cn[nH]c4)cc3n1)CN(C)CC2
3 = CCC1COC(=O)N1c1cc(N)c2cnc(Nc3cc4c(cc3OC)CCN(C)C4)nc2c1 (single isomer, unassigned)
Rank order required: IC50, descending. List the labels, following the order given in the request. 1, 2, 3

A = Cc1c(-c2c(F)c(N)c3cnc(Nc4ccc5c(c4)CN(C)CC54CC4)nc3c2Br)cnc2c1NCCO2
B = COc1cc2c(cc1Nc1ncc3ccc(NC4(C(=O)N(C)C)CC4)cc3n1)CN(C)CC2
Of A and B , which shows the smaller IC50 value? Identify your pick by its label. A
(A: 0.0199 nM, B: 294 nM)

a = COc1cc2c(cc1Nc1ncc3ccc(N4CCC[C@H](N5CCOC5=O)C4)cc3n1)CN(C)CC2
b = COc1cc2c(cc1Nc1ncc3c(N)c(F)c(-c4cnc5c(c4C)NCCO5)c(Cl)c3n1)CN(C)CC21CC1 (single isomer, unassigned) [Compound 2-163]
c = COc1cc2c(cc1Nc1ncc3ccc(-c4cncc5cccnc45)cc3n1)CN(C)CC2
d = COC(=O)Cc1ccc(OC)c(Nc2ncc3c(N)c(F)c(-c4cnc5c(c4C)NCCO5)cc3n2)c1
Sort ascending by IC50. Arrange the labels as the request states and list them. b, c, d, a

1 = Cc1c(-c2cc3nc(Nc4cc5c(cc4C(N)=O)CCN(C)C5)ncc3c(N)c2F)cnc2c1NCCO2
2 = COc1cc2c(cc1Nc1ncc3c(N)c(F)c(-c4cnc5c(c4C)NCCO5)cc3n1)CN(C(C)=O)CC2
Of the pair 1 and 2 , name the member with the lesser recorded IC50. Give the label under which the chosen entry appears. 1
(1: 100 nM, 2: 685 nM)
